Provide the recorded APTT for the entries that follow.
# assay overview: In vitro anticoagulant activity determined by clotting test of activated partial thromboplastin time (APTT) on a pool of human plasma
# Type: functional

INSERT INTO results (molecule, measurement) VALUES
  ('C=CCCOC(=O)/C=C(\CO)OC1OC(COS(=O)(=O)[O-])C(OC2OC(C(=O)OCCC=C)C(OC3OC(COS(=O)(=O)[O-])C(OC4OC(C(=O)OCCC=C)C(OC5OC(COS(=O)(=O)[O-])C(O)C(O)C5NS(=O)(=O)[O-])C(O)C4OS(=O)(=O)[O-])C(O)C3NS(=O)(=O)[O-])C(O)C2OS(=O)(=O)[O-])C(O)C1NS(=O)(=O)[O-].[Na+].[Na+].[Na+].[Na+].[Na+].[Na+].[Na+].[Na+] (configuration not stated)', '3 IU mg-1');

Next, consider the following molecule.
**Query** Data request, read-out APTT, for CCCCOC(=O)/C=C(\COC(=O)CCC)OC1OC(COS(=O)(=O)[O-])C(OC2OC(C(=O)OCCCC)C(OC3OC(COS(=O)(=O)[O-])C(OC4OC(C(=O)OCCCC)C(OC5OC(COS(=O)(=O)[O-])C(O)C(OC(=O)CCC)C5NC(C)=O)C(OC(=O)CCC)C4OS(=O)(=O)[O-])C(OC(=O)CCC)C3NC(C)=O)C(OC(=O)CCC)C2OS(=O)(=O)[O-])C(OC(=O)CCC)C1NC(C)=O.[Na+].[Na+].[Na+].[Na+].[Na+] (configuration not stated)
**Result** 1.3 IU mg-1
